# Tested on: HepG2
# Assay explanation: Anticancer activity against human HepG2 cells after 48 hrs by MTT assay
# Type: functional, cell-based
# Setup conditions: HepG2, 48 h
Assay metric: IC50 (µM)
Numeric answer only, unit µM assumed.

Query CC(=O)O[C@H]1[C@@H](n2cncn2)C[C@H]2[C@@H]3CC[C@H]4C[C@@H](N5CCOCC5)CC[C@]4(C)[C@H]3CC[C@@]21C yields IC50 of 19.5

In plain terms, CC(=O)O[C@H]1[C@@H](n2cncn2)C[C@H]2[C@@H]3CC[C@H]4C[C@@H](N5CCN(C)CC5)CC[C@]4(C)[C@H]3CC[C@@]21C has a documented IC50 of 23.5

// field: IC50; key: CC(=O)O[C@H]1[C@@H](n2cnc3ccccc32)C[C@H]2[C@@H]3CC[C@H]4C[C@@H](N5CCCCC5)CC[C@]4(C)[C@H]3CC[C@@]21C ; value = 29.6

###

# System: HeLa
# Assay explanation: Anticancer activity against human HeLa cells after 48 hrs by MTT assay
# Format: functional, cell-based
pIC50: −log10 of the molar value.
Reported values of pIC50 for individual entries

Consider the following illustrative entries.
Structure string: CC(=O)O[C@H]1[C@@H](n2ccnn2)C[C@H]2[C@@H]3CC[C@H]4C[C@@H](N(C)Cc5ccccc5)CC[C@]4(C)[C@H]3CC[C@@]21C
Test target: HeLa
pIC50: < 4.30

Structure string: CCN(CC)[C@H]1CC[C@@]2(C)[C@@H](CC[C@@H]3[C@@H]2CC[C@@]2(C)[C@H]3C[C@H](n3ccnn3)[C@@H]2OC(C)=O)C1
Test target: HeLa
pIC50: < 4.30

Structure string: CC(=O)O[C@H]1[C@@H](n2nnc3ccccc32)C[C@H]2[C@@H]3CC[C@H]4C[C@@H](N5CCCC5)CC[C@]4(C)[C@H]3CC[C@@]21C
Test target: HeLa
pIC50: < 4.30

Structure string: CC(=O)O[C@H]1[C@@H](n2cnc3ccccc32)C[C@H]2[C@@H]3CC[C@H]4C[C@@H](N5CCCC5)CC[C@]4(C)[C@H]3CC[C@@]21C
Test target: HeLa
pIC50: < 4.30

Structure string: CC(=O)O[C@H]1[C@@H](n2cncn2)C[C@H]2[C@@H]3CC[C@H]4C[C@@H](N5CCCCC5)CC[C@]4(C)[C@H]3CC[C@@]21C
Test target: HeLa
pIC50: < 4.30

Switching to the query record.
Known value: HeLa pIC50 of the molecule CC(=O)O[C@H]1[C@@H](n2cnc3ccccc32)C[C@H]2[C@@H]3CC[C@H]4C[C@@H](N5CCN(C)CC5)CC[C@]4(C)[C@H]3CC[C@@]21C equals < 4.30

###

Measured IC50 values are reported for all entries that follow.
# Tested on: SiHa
# Assay explanation: Anticancer activity against human SiHa cells after 48 hrs by MTT assay
# Type: functional, cell-based

Known IC50 results, listed for orientation:
Structure string: CCN(CC)[C@H]1CC[C@@]2(C)[C@@H](CC[C@@H]3[C@@H]2CC[C@@]2(C)[C@H]3C[C@H](n3cncn3)[C@@H]2OC(C)=O)C1
IC50: > 50 µM

Structure string: CC(=O)O[C@H]1[C@@H](n2cnc3ccccc32)C[C@H]2[C@@H]3CC[C@H]4C[C@@H](N5CCOCC5)CC[C@]4(C)[C@H]3CC[C@@]21C
IC50: 12.3 µM

Turning now to a further molecule:
Item: CC(=O)O[C@H]1[C@@H](n2cncn2)C[C@H]2[C@@H]3CC[C@H]4C[C@@H](N5CCCCC5)CC[C@]4(C)[C@H]3CC[C@@]21C | System: SiHa | IC50: > 50 µM

###

# Tested on: HepG2
# Assay explanation: Anticancer activity against human HepG2 cells after 48 hrs by MTT assay
# Type: functional, cell-based
# Setup conditions: HepG2, 48 h
pIC50: −log10 of the molar value.
Assay metric: pIC50

In the examples that follow, each entry is paired with its recorded pIC50.
Structure string: CC(=O)O[C@H]1[C@@H](n2cnc3ccccc32)C[C@H]2[C@@H]3CC[C@H]4C[C@@H](N(C)c5ccccc5)CC[C@]4(C)[C@H]3CC[C@@]21C
pIC50: < 4.30
--
Structure string: CC(=O)O[C@H]1[C@@H](n2cnc3ccccc32)C[C@H]2[C@@H]3CC[C@H]4C[C@@H](N5CCOCC5)CC[C@]4(C)[C@H]3CC[C@@]21C
pIC50: < 4.30

Form field pIC50, entry CC(=O)O[C@H]1[C@@H](n2nnc3ccccc32)C[C@H]2[C@@H]3CC[C@H]4C[C@@H](N5CCCCC5)CC[C@]4(C)[C@H]3CC[C@@]21C : < 4.30

Memo: CC(=O)O[C@H]1[C@@H](n2nnc3ccccc32)C[C@H]2[C@@H]3CC[C@H]4C[C@@H](N(C)Cc5ccccc5)CC[C@]4(C)[C@H]3CC[C@@]21C , reported pIC50: 5.26

###

# Test system: HepG2
# Assay explanation: Anticancer activity against human HepG2 cells after 48 hrs by MTT assay
# Type: functional, cell-based
# Setup conditions: HepG2, 48 h
pIC50: −log10 of the molar value.
Below, each entry is listed with its recorded pIC50.

Recorded pIC50, per entry:
Structure string: CC(=O)O[C@H]1[C@@H](n2nnc3ccccc32)C[C@H]2[C@@H]3CC[C@H]4C[C@@H](N5CCCC5)CC[C@]4(C)[C@H]3CC[C@@]21C
pIC50: < 4.30

Structure string: CC(=O)O[C@H]1[C@@H](n2nnc3ccccc32)C[C@H]2[C@@H]3CC[C@H]4C[C@@H](N5CCN(C)CC5)CC[C@]4(C)[C@H]3CC[C@@]21C
pIC50: 4.50

Structure string: CC(=O)O[C@H]1[C@@H](n2ccnn2)C[C@H]2[C@@H]3CC[C@H]4C[C@@H](N(C)c5ccccc5)CC[C@]4(C)[C@H]3CC[C@@]21C
pIC50: 5.03

GET /value?item= CC(=O)O[C@H]1[C@@H](n2cncn2)C[C@H]2[C@@H]3CC[C@H]4C[C@@H](N5CCCCC5)CC[C@]4(C)[C@H]3CC[C@@]21C &field=pIC50 returns < 4.30

In plain terms, CC(=O)O[C@H]1[C@@H](n2ccnn2)C[C@H]2[C@@H]3CC[C@H]4C[C@@H](N5CCCC5)CC[C@]4(C)[C@H]3CC[C@@]21C has a documented pIC50 of < 4.30

Please fill in: pIC50 reported for CCN(CC)[C@H]1CC[C@@]2(C)[C@@H](CC[C@@H]3[C@@H]2CC[C@@]2(C)[C@H]3C[C@H](n3ccnn3)[C@@H]2OC(C)=O)C1 = < 4.30

###

# Test system: SiHa
# Assay explanation: Anticancer activity against human SiHa cells after 48 hrs by MTT assay
# Assay type: functional, cell-based
Assay metric: pIC50
// scale note: pIC50 = -log10(conc_M); give the bare number

Here is how some compounds turned out for pIC50.
Structure string: CC(=O)O[C@H]1[C@@H](n2cnc3ccccc32)C[C@H]2[C@@H]3CC[C@H]4C[C@@H](N(C)c5ccccc5)CC[C@]4(C)[C@H]3CC[C@@]21C
pIC50: 5.18
//
Structure string: CC(=O)O[C@H]1[C@@H](n2cnc3ccccc32)C[C@H]2[C@@H]3CC[C@H]4C[C@@H](N5CCCC5)CC[C@]4(C)[C@H]3CC[C@@]21C
pIC50: 4.43
//
Structure string: CC(=O)O[C@H]1[C@@H](n2ccnn2)C[C@H]2[C@@H]3CC[C@H]4C[C@@H](N5CCOCC5)CC[C@]4(C)[C@H]3CC[C@@]21C
pIC50: 4.32
//
Structure string: CC(=O)O[C@H]1[C@@H](n2ccnn2)C[C@H]2[C@@H]3CC[C@H]4C[C@@H](N(C)Cc5ccccc5)CC[C@]4(C)[C@H]3CC[C@@]21C
pIC50: 4.82
//
Structure string: COc1cccc2c1C(=O)c1c(O)c3c(c(O)c1C2=O)C[C@@](O)(C(=O)CO)C[C@@H]3O[C@H]1C[C@H](N)[C@H](O)[C@H](C)O1
pIC50: 6.35

Consider the record given below.
Entry CC(=O)O[C@H]1[C@@H](n2ccnn2)C[C@H]2[C@@H]3CC[C@H]4C[C@@H](N(C)c5ccccc5)CC[C@]4(C)[C@H]3CC[C@@]21C , SiHa data, pIC50 value: 4.93

###

# Tested on: SiHa
# Assay explanation: Anticancer activity against human SiHa cells after 48 hrs by MTT assay
# Format: functional, cell-based
pIC50: −log10 of the molar value.
pIC50 values for the compounds below.

Some compounds with recorded pIC50:
Structure string: CC(=O)O[C@H]1[C@@H](n2ccnn2)C[C@H]2[C@@H]3CC[C@H]4C[C@@H](N5CCCC5)CC[C@]4(C)[C@H]3CC[C@@]21C
pIC50: < 4.30

Structure string: CC(=O)O[C@H]1[C@@H](n2cncn2)C[C@H]2[C@@H]3CC[C@H]4C[C@@H](N(C)Cc5ccccc5)CC[C@]4(C)[C@H]3CC[C@@]21C
pIC50: 4.65

Structure string: CC(=O)O[C@H]1[C@@H](n2nnc3ccccc32)C[C@H]2[C@@H]3CC[C@H]4C[C@@H](N5CCOCC5)CC[C@]4(C)[C@H]3CC[C@@]21C
pIC50: < 4.30

Okay, next one:
The compound listed as CC(=O)O[C@H]1[C@@H](n2cncn2)C[C@H]2[C@@H]3CC[C@H]4C[C@@H](N5CCN(C)CC5)CC[C@]4(C)[C@H]3CC[C@@]21C has a reported pIC50 of < 4.30
